Attribution: PubChem BioAssay (NCI)

test: NCI Yeast Anticancer Drug Screen. Data for the mec2-1 strain (AID 157); details: S. cerevisiae mec2-1 strain, at 50.0 µM, active compounds read high
About 79,000 compounds went through this panel and 15% of them were active in at least one assay; those are over-represented in the sample as a whole.

compound	unitAbbrev	growth inhibition
CN(C)Cc1[nH]c(=O)[nH]c(=O)c1O	%	-8.75
O=C(Oc1c(Cl)cc(Cl)cc1C=Nc1ccc(Cl)cc1)c1ccccc1	%	71.4
COc1ccc2c(c1)-c1c3c(cc4ccnc(c14)C2=O)OCO3	%	93
Cc1ccc(S(=O)(=O)N/N=C/c2oc(-c3ccccc3Cl)c(-c3ccccc3Cl)c2[N+](=O)[O-])cc1	%	45.3
CCOC(O)C(F)(F)F (configuration not stated)	%	-0.7
CC(C)COC(=O)c1ccc(C(C)C)cc1	%	8.8
C1Cc2nnnn2C1	%	-20.1
CC12CCC(CC1C(=O)O)C2 (configuration not stated)	%	16.3
COc1ccc(C2=C(OC(=O)N(C)C)c3cccn3-c3cc(Cl)ccc3S2)cc1	%	2
COc1ccc(OC)c(NC(=O)CCCC(=O)C(C#N)c2ccccc2C)c1 (configuration not stated)	%	-4.9
Cc1ccc(N(C(=O)Nc2ccccc2)C2=NCC(C)S2)cc1C (configuration not stated)	%	-17.9
CN(C)c1ccc(C(=O)CCCN2CCC(O)(c3ccc(Cl)cc3)CC2)cc1	%	14.8
CCCOC(=O)CNC(=O)OC(C)(C)C	%	14.8
COC(=O)c1cc(=O)c2scc(C)[n+]2[nH]1	%	-10.8
O=[N+]([O-])c1ccc(N=N/C(Cc2ccccc2)=N\Nc2ccccc2)cc1	%	12.9
COC(=O)Oc1ccccc1C(=O)O	%	-22.6
S=c1nc(NCc2ccccc2)[nH]c2[nH]ncc12	%	-17.2
Cc1cc(=O)n(-c2c(C)cccc2Cl)c(/C=C(\O)c2ccncc2)n1	%	-2.65
CCC1(C(=O)O)NC(=O)NC1=O (configuration not stated)	%	-11.6
CCCCCCCCOCC1S(=O)(=O)OCCOS1(=O)=O	%	-17.6
Cc1nn(C(=O)CC(=O)Nc2ccc(Cl)cc2)c(C)c1N=Nc1ccccc1F	%	-25.5
C(=C\c1ccc2ccccc2c1)/c1ccc2ccccc2c1	%	25.6
NC1=NC(c2ccccc2)C2=C(N1)C(=O)N(Cc1ccccc1)C2 (configuration not stated)	%	-6.25
COc1ccc(N=Cc2cc(OC)c(OC)c(OC)c2)cc1	%	-9.6
CCOC(=O)C(C)(/C=N/NS(=O)(=O)c1ccc(C)cc1)c1ccccc1 (configuration not stated)	%	10.7
COc1ccc(/C=C/C(=O)c2ccc(Br)cc2)cc1	%	-67.5
O=C(NCc1ccccc1)NCc1ccccc1	%	-0.65
NC(=O)Oc1cccc(OC(N)=O)c1	%	-6.25
C=CCOC(=O)c1cccc(C(=O)OCC=C)c1	%	23.4
CCOC(=O)C(=O)C(C(=O)OCC)C(C)C(=O)OCC (configuration not stated)	%	-8.3
C=C1CC23CC[C@H]4[C@@](C)(CCC[C@@]4(C)C(=O)OC4OC(CO)C(O)C(O)C4O)[C@@H]2CC[C@@]1(OC1OC(CO)C(O)C(O)C1OC1OC(CO)C(O)C(O)C1O)C3 (some centres not stated)	%	-38.5
COc1ccc(Nc2nc(NNC(=O)Cc3ccccc3)nc(NNC(=O)c3ccncc3)n2)cc1	%	20.1
Cc1cc2c(cc1Cl)SC(NNc1ccc([N+](=O)[O-])cc1)=NS2(=O)=O	%	2.4
CCOC(=O)C1=C(C)N(NC(N)=O)C2(N)N(NC(N)=O)C(C)=C(C(=O)OCC)C12C#N (configuration not stated)	%	21.9
CC(=O)NCc1cccc([N+](=O)[O-])c1	%	-12.9
COC1OC(CO)C(O)C(NC(=O)[C@H](Cc2ccccc2)NC(=O)OCc2ccccc2)C1O (some centres not stated)	%	0.75
NC(=O)c1sc(N2CCCC2)nc1N	%	23.9
Cn1c2ccc(Br)cc2c2cc(Br)cc([N+](=O)[O-])c21	%	5.05
CC(C)C(O)C(=O)C(O)C(C)C (configuration not stated)	%	-8.2
CN(C)CCNc1cccc2oc3ccc(O)cc3c(=O)c12	%	-4.95
COc1ccc(C(CC(=O)O)c2cc3c(cc2OC)OCO3)cc1 (configuration not stated)	%	-9.85
CCN(CC)CCC(=O)c1ccc(OC)cc1	%	16.3
Cc1ccc2nc(NS(=O)(=O)c3cc(C)c(Cl)cc3S)[nH]c2c1	%	4.35
CCCCc1c[nH]c(=O)[nH]c1=O	%	5.05
CCC1C(C)(C)c2cc(C)c(C(C)=O)cc2C1(C)C (configuration not stated)	%	-8.75
CC1(n2[nH]c(=O)n(-c3ccccc3)c2=O)Cn2c(=O)n(-c3ccccc3)c(=O)n2-c2ccccc21 (configuration not stated)	%	-0.3
O=C(Cn1ccnc1[N+](=O)[O-])c1ccc(F)cc1	%	-13.9
